- Target Of Assay: CLDN18.2 expressed in mouse healthy stomach tissue (mouse) (UniProt P56857)
- Experiment Description: flow cytometry, live cells from healthy mouse stomach, antibody 4 µg/ml
Would you mind telling me the reported % of positive healthy stomach cells (Mouse 1) of each entry?
Kindly provide the numeric value in % only, without the unit symbol.

# lookup: % of positive healthy stomach cells (Mouse 1) of hCl1a (antibody, human IgG1, kappa, V domains shown) VH: QVQLVQSGAEVKKPGASVKVSCKASGYTFTDYAMHWVRQAPGQRLEWMGWINTYTGKPTYAQKFQGRVTITRDTSASTAYMELSSLRSEDTAVYYCARAVFYGYTMDAWGQGTLVTVSS VL: DIQMTQSPSSLSASVGDRVTITCRASEDIYSNLAWYQQKPGKAPKLLIFSVKRLQDGVPSRFSGSGSGTDFTLTISSLQPEDFATYYCLQGSNFPLTFGQGTKVEIKR
1.2

Need % of positive healthy stomach cells (Mouse 1), item hCl1f (antibody, human IgG1, kappa, V domains shown) VH: QVQLVQSGAEVKKPGASVKVSCKASGYTFTDYAMHWVRQAPGQRLEWMGWINAYTGKPTYAQKFQGRVTITRDTSASTAYMELSSLRSEDTAVYYCARAVFYGYTMDAWGQGTLVTVSS VL: DIQMTQSPSSLSASVGDRVTITCRASEDIYSNLAWYQQKPGKAPKLLIYSVKRLQDGVPSRFSGSGSGTDFTLTISSLQPEDFATYYCLQGSNFPLTFGQGTKVEIKR
0.04
